Assay: Pharmacokinetics after a single SC or PO dose
Assay type: in vivo, mouse
Conditions: C57BL/6NCRL, mouse, brain, po, 50 mg/kg, mice; PO 50 mg eq./kg; brain; read-out: Observed Cmax
Procedure: The pharmacokinetic parameters of 4b following dosing with either 5 mg/kg subcutaneous (sc) injection using the soluble formulation, or 4b per oral (po) by gavage (50 mg/kg in suspension) in mice plasma and whole brain homogenate are shown in Fig. 4 and Table 1. Triplicate dose formulation samples were retained and analyzed to ensure an accurate concentration of 4b was injected. The sc dose was calculated to be on average 84.3% of the 5 mg/kg target dose. […]
QUANTITY NAME: Cmax (nM)

[[record]]
test_smiles = "Nc1ccccc1NC(=O)CCCCCC(=O)Nc1ccccc1"
quantity_name = "Cmax"
val = 24


----------
assay: Solubility in water, formulations and DMSO; type: physicochemical; conditions: NMP/PEG400/Solutol HS-15/Lutrol F68 aqueous vehicle, aqueous with cosolvent or surfactant or cyclodextrin; free base; 2% N-methyl-2-pyrollidone, 18% polyethylene glycol 400, 10% solutol HS-15, 70% (1% Lutrol F68 in water); read-out: soluble formulation concentration
QUANTITY NAME: solubility (µg/mL)

[[record]]
test_smiles = "Nc1ccccc1NC(=O)CCCCCC(=O)Nc1ccccc1"
quantity_name = "solubility"
val = 1000


----------
assay: Pharmacokinetics after a single SC or PO dose; format: in vivo, mouse; conditions: C57BL/6NCRL, mouse, 50 mg/kg; mice; PO 50 mg eq./kg; plasma
QUANTITY NAME: AUC(0-inf) (µM·h)

[[record]]
molecule = "Nc1ccccc1NC(=O)CCCCCC(=O)Nc1ccccc1 [Compound 4b]"
quantity_name = "AUC(0-inf)"
val = 1.08


----------
assay: Pharmacokinetics after a single SC or PO dose; type: in vivo, mouse; details: C57BL/6NCRL, mouse, plasma, po, 50 mg/kg, mice; PO 50 mg eq./kg; plasma; read-out: Observed Cmax
QUANTITY NAME: Cmax (nM)

[[record]]
test_smiles = "Nc1ccccc1NC(=O)CCCCCC(=O)Nc1ccccc1"
quantity_name = "Cmax"
val = 1130


----------
Reported half-life at 5 µM by item:
experiment: Plasma stability; type: in vitro ADME, mouse; conditions: pooled mouse plasma; fresh mouse plasma; 5 µM, duplicates
QUANTITY NAME: half-life at 5 µM (h)

[[record]]
test_smiles = "O=C(CCCCCc1nc2ccccc2[nH]1)Nc1ccccc1"
val = 3.6

[[record]]
test_smiles = "Nc1ccccc1NC(=O)CCCCCC(=O)Nc1ccccc1"
val = 1.9

